- Protocol Text: NCI Yeast Anticancer Drug Screen. Data for the rad50EPP+ strain (AID 151);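 also: 0% = growth of vehicle-treated control cultures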
- Settings: S. cerevisiae rad50 mutant strain, at 1.2 µM, active compounds read high
Compounds without any hit were thinned out: in the full panel of roughly 79,000, 15% have a hit.
Readout Label: growth inhibition (%)

Compound: CCC(=O)N(c1ccccc1)C(C)CN1CCC(O)(c2cccc(C(F)(F)F)c2)CC1 (stereo unspecified)
Readout Label: growth inhibition
Val: -3
//
Compound: COCCCN(Cc1cc(OC)c(OC)c(OC)c1)C(=S)Nc1cccc(Cl)c1
Readout Label: growth inhibition
Val: -12
//
Compound: CCOC(=O)CNC(=O)c1[nH]cnc1/N=N/N(C)C
Readout Label: growth inhibition
Val: -23
//
Compound: CN(N=O)c1ccc(/C=C/c2ccnc3ccccc23)cc1
Readout Label: growth inhibition
Val: 7
//
Compound: CC1=CC2C(C(C)C)CC1C1C(=O)OC(=O)C21 (stereo unspecified)
Readout Label: growth inhibition
Val: -8
//
Compound: N#C/C(=C/c1c(Cl)cccc1Cl)C(N)=O
Readout Label: growth inhibition
Val: -24
//
Compound: COc1ccc(N2C(=O)CC(Cl)C2=O)cc1 (stereo unspecified)
Readout Label: growth inhibition
Val: -9
//
Compound: Nc1cc(F)cc2c1-c1ccc(F)cc1C2
Readout Label: growth inhibition
Val: 3
//
Compound: CC(=O)OCC1OC(O[C@H]2C=C[C@@H](C(=O)OCc3ccccc3)n3c(=O)n(-c4ccccc4)c(=O)n32)C(OC(C)=O)C(OC(C)=O)C1OC(C)=O (stereo partly specified)
Readout Label: growth inhibition
Val: -9
//
Compound: NNC(=S)Nc1cccc2ccccc12
Readout Label: growth inhibition
Val: -48
//
Compound: C/C=C/[P+](c1ccccc1)(c1ccccc1)c1ccccc1
Readout Label: growth inhibition
Val: 13

###

- Protocol Text: NCI Yeast Anticancer Drug Screen. Data for the rad52 strain (AID 147);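 also: 0% = growth of vehicle-treated control cultures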
- Settings: S. cerevisiae rad52 mutant growth inhibition; at 11.0 µM; active compounds read high
About 79,000 compounds went through this panel and 15% of them were active in at least one assay; those are over-represented in the sample as a whole.

Molecule: COc1cc(CNc2ccc(C(C)C)cc2)cc(OC)c1OC
growth inhibition (%): -17
//
Molecule: C(=N/NC1=NCCN1)/c1c2ccccc2c(/C=N\NC2=NCCN2)c2ccccc12
growth inhibition (%): 94
//
Molecule: O=C1c2c(O)cccc2-c2nn(CCNCCO)c3ccc(NCCNCCO)c1c23
growth inhibition (%): 73
//
Molecule: Cc1ccc(S(=O)(=O)N(C)c2ccc(Cl)cc2C2=NCCc3ccccc32)cc1
growth inhibition (%): -6
//
Molecule: O=[N+]([O-])c1c(/C=N/Nc2ccccc2)oc(-c2ccc3c(c2)OCO3)c1-c1ccc2c(c1)OCO2
growth inhibition (%): 20
//
Molecule: CC(=O)C1=C(O)C2(C)c3c(O)c(C)c(O)c(C(C)=O)c3OC2(Sc2ccccc2)CC1=O (stereo unspecified)
growth inhibition (%): 54
//
Molecule: [N-]=[N+]=NC(c1ccccc1)(c1ccccc1)c1ccccc1
growth inhibition (%): 9
//
Molecule: Cc1cccc2c1N=C(C(F)(F)F)CC2=O
growth inhibition (%): 10
//
Molecule: Clc1c(Cl)c(Cl)c2c(nnn2C2CCCO2)c1Cl (stereo unspecified)
growth inhibition (%): 24
//
Molecule: Nc1ccc2c(=S)c3ccccc3[nH]c2c1
growth inhibition (%): 12
//
Molecule: CC1OC(OC2CCCc3c(O)c4c(c(O)c32)C(=O)c2ccccc2C4=O)CC(N)C1O (stereo unspecified)
growth inhibition (%): 94
//
Molecule: O=C(O)c1cccc2cccc(-c3c4ccc(=O)cc-4oc4cc(O)ccc34)c12
growth inhibition (%): 79
//
Molecule: Cn1ncc2cc3c(Nc4ccc(Cl)cc4)cccc3nc21
growth inhibition (%): 6
//
Molecule: CC(=O)CC(=O)/C=C/c1cccs1
growth inhibition (%): 6
//
Molecule: Nc1cc(S(N)(=O)=O)ccc1SSc1ccc(S(N)(=O)=O)cc1N
growth inhibition (%): 21
//
Molecule: Nc1nc2c(c(=O)[nH]1)NC(CCNc1ccc(C(=O)O)cc1)CN2 (stereo unspecified)
growth inhibition (%): -5
//
Molecule: Nc1ccc(S(=O)(=O)Nc2ccc(Nc3c4ccccc4nc4ccccc34)cc2)cc1
growth inhibition (%): 88
//
Molecule: C=C(CCCO)[C@@H]1CC[C@@](C)(O)[C@H]1C
growth inhibition (%): -13
//
Molecule: Cc1ccc(S(=O)(=O)Nc2ccc3c(c2)C(O)c2ccccc2-3)cc1 (stereo unspecified)
growth inhibition (%): 9
//
Molecule: Cc1cc(O)c2c(c1)C(=O)C=C(Br)C2=O
growth inhibition (%): 98
//
Molecule: CCC(NC(C)c1ccccc1)C(=O)c1ccc(OCc2ccccc2)c(OCc2ccccc2)c1 (stereo unspecified)
growth inhibition (%): 0
//
Molecule: CCCCCCCCCCCc1nc(N)n[nH]1
growth inhibition (%): 5
//
Molecule: COC(=O)c1cccc(C)c1C(=O)c1c(C)cc(C)cc1C
growth inhibition (%): 4
//
Molecule: CCNc1ccc2c(c1)C(=O)N(OS(C)(=O)=O)C2=O
growth inhibition (%): 5
//
Molecule: Nc1cc(F)cc2c1-c1ccc(F)cc1C2
growth inhibition (%): 3
//
Molecule: OCCNCCOc1ccc(/C(=C(/Cl)c2ccccc2)c2ccccc2)cc1
growth inhibition (%): -20
//
Molecule: C/C(=N\NC(=S)NNC(=S)N(C)c1ccccc1)c1ccccn1
growth inhibition (%): 97
//
Molecule: O=C1OC2C(O)COC2(OCc2c[nH]c3ccccc23)C1O (stereo unspecified) (tested in a mixture with another compound)
growth inhibition (%): 1
//
Molecule: CC(=O)Oc1ccc(C(=O)c2ccccc2)c(O)c1
growth inhibition (%): 2
//
Molecule: COC(=O)CSc1nnc(CSc2ccc(Cl)cc2)n1-c1ccccc1
growth inhibition (%): 5
//
Molecule: Cc1onc(-c2ccccc2Cl)c1C1=N/C(=C/c2cc(Cl)cc(Cl)c2O)C(=O)O1
growth inhibition (%): -35
//
Molecule: CCCCCCCCCCCCCC(=O)OC(C)CCC1CCCO1 (stereo unspecified)
growth inhibition (%): 2
//
Molecule: O=C1c2ccccc2C(=O)c2cc(S(=O)(=O)Nc3ccccc3)ccc21
growth inhibition (%): 16
//
Molecule: Clc1c(Cl)c(Cl)c2n[nH]nc2c1Cl
growth inhibition (%): -20
//
Molecule: BrCc1ccccc1C(c1ccccc1)c1ccccc1
growth inhibition (%): 96
//
Molecule: CC[C@@]1(OC(=O)CN(C)C)C(=O)OCc2c1cc1n(c2=O)Cc2cc3c(N)cccc3nc2-1
growth inhibition (%): 88
//
Molecule: NCc1c(O)ccc2ccccc12
growth inhibition (%): -1
//
Molecule: CCOC(=O)C1=C(C)NC(C)=C(C(=O)OCC)C1c1ccccc1Cl
growth inhibition (%): 4
//
Molecule: O=S(=O)(c1cc(Cl)ccc1O)c1cc(Cl)ccc1O
growth inhibition (%): 99
//
Molecule: CN(CC(=O)O)c1ccc(/C=C/c2ccnc3ccccc23)cc1
growth inhibition (%): -2
//
Molecule: COCCCN(Cc1cc(OC)c(OC)c(OC)c1)C(=S)Nc1cccc(Cl)c1
growth inhibition (%): 7
//
Molecule: COc1ccc(N)c2c1C(=O)c1ccccc1C2=O
growth inhibition (%): 46
//
Molecule: On1cnc(=S)c2[nH]cnc21
growth inhibition (%): -29
//
Molecule: CC(=O)c1cc2c(Cl)cc(Cl)cc2oc1=O
growth inhibition (%): 4
//
Molecule: COc1cc(N(C)C)ccc1/C=C\c1ccnc2ccccc12
growth inhibition (%): -6
//
Molecule: O=C1C=CC(=O)N1c1ccc(I)cc1
growth inhibition (%): 97
